The values you see were collected from paper PMC6271529.

Entries and their measured melting point follow.
observable: melting point

> print(dat)
                                   compound     observable  observed.value
1  Fc1ccc(-n2c(-c3ccc(Cl)cc3)n[nH]c2=S)c(F)c1 [Compound 13a]  melting point   196 to 198 °C
2  S=c1[nH]nc(-c2ccc(Cl)cc2)n1-c1ccc(Cl)cc1Cl [Compound 14a]  melting point   238 to 240 °C
3     Fc1ccccc1-n1c(-c2cccc(Cl)c2)n[nH]c1=S  melting point   170 to 171 °C
4  CSc1ccc(-n2c(-c3ccc(Cl)cc3)n[nH]c2=S)cc1 [Compound 17a]  melting point   214 to 216 °C
5   Fc1cccc(-n2c(-c3cccc(Cl)c3)n[nH]c2=S)c1  melting point   221 to 222 °C
6  CCN(CC)c1ccc(-n2c(-c3ccc(Cl)cc3)n[nH]c2=S)cc1 [Compound 18a]  melting point   264 to 266 °C
7  Fc1ccc(N2CCN(Cn3nc(-c4ccc(Cl)cc4)n(-c4ccc(Br)cc4)c3=S)CC2)cc1 [Compound 30a]  melting point   156 to 158 °C
8  S=c1n(CN2CCOCC2)nc(-c2ccc(Cl)cc2)n1-c1ccccc1Br [Compound 25a]  melting point   180 to 181 °C
9   Cc1cccc(-n2c(-c3cccc(Cl)c3)n[nH]c2=S)c1  melting point   200 to 201 °C

###

- System: maximal electroshock-induced seizures
- run-description: Maximal electroshock-induced seizure (MES) test in mice
- Format: in vivo, mouse
- measurement-context: Mus musculus, ip, pretreatment time 120 min, mice; read-out: ED50 ± S.E. (MES test)
Listing: ED50 of selected compounds
observable: ED50

> print(dat)
                                   compound  observable  observed.value
1  Cc1ccc(-n2c(-c3cccc(Cl)c3)nn(CN3CCOCC3)c2=S)cc1 [Compound 22a]        ED50       448 mg/kg
2  CCCC(CCC)C(=O)O [Valproate, Magnesium valproate]        ED50       247 mg/kg
3  Fc1ccccc1-n1c(-c2ccc(Cl)cc2)n[nH]c1=S [Compound 12a]        ED50       209 mg/kg
4  S=c1[nH]nc(-c2ccc(Cl)cc2)n1-c1ccccc1Br [Compound 15a]        ED50       176 mg/kg
5   Fc1ccc(-n2c(-c3cccc(Cl)c3)n[nH]c2=S)cc1        ED50     > 200 mg/kg

###

- Tested on: maximal electroshock-induced seizures
- run-description: Maximal electroshock-induced seizure (MES) test in mice
- Assay type: in vivo, mouse
- measurement-context: Mus musculus, ip, pretreatment time 60 min, mice; read-out: ED50 ± S.E. (MES test)
The following compounds are shown together with reported ED50 values.
observable: ED50 (mg/kg)

> print(dat)
                                   compound                            system.name  reading.qualifier  observed.value
1  Cc1ccc(-n2c(-c3cccc(Cl)c3)nn(CN3CCOCC3)c2=S)cc1 [Compound 22a]  maximal electroshock-induced seizures                  =             274
2  CCCC(CCC)C(=O)O [Valproate, Magnesium valproate]  maximal electroshock-induced seizures                  =             218
3  Fc1ccc(-n2c(-c3ccc(Cl)cc3)n[nH]c2=S)c(F)c1 [Compound 13a]  maximal electroshock-induced seizures                  =             109
4  Fc1ccccc1-n1c(-c2ccc(Cl)cc2)n[nH]c1=S [Compound 12a]  maximal electroshock-induced seizures                  =             218
5  S=c1[nH]nc(-c2cccc(Cl)c2)n1-c1ccc(Br)cc1  maximal electroshock-induced seizures                  =             209
6  S=c1[nH]nc(-c2ccc(Cl)cc2)n1-c1ccccc1Br [Compound 15a]  maximal electroshock-induced seizures                  =             137
7  S=c1[nH]nc(-c2cccc(Cl)c2)n1-c1ccc(Cl)cc1  maximal electroshock-induced seizures                  =             171
8  S=c1[nH]nc(-c2ccc(Cl)cc2)n1-c1ccc(Br)cc1 [Compound 16a]  maximal electroshock-induced seizures                  =             153
9   Fc1ccc(-n2c(-c3cccc(Cl)c3)n[nH]c2=S)cc1  maximal electroshock-induced seizures                  >             200

###

- Test system: maximal electroshock-induced seizures
- run-description: Maximal electroshock-induced seizure (MES) test in mice
- Format: in vivo, mouse
- measurement-context: protective index, chimney TD50 / MES ED50, pretreatment time 15 min
Mark -1 for PI (TD50/ED50) values under 3, and 1 for everything at or above.

> print(dat)
                                   compound                            system.name  assigned.label
1  Cc1ccc(-n2c(-c3cccc(Cl)c3)n[nH]c2=S)cc1 [Compound 10a]  maximal electroshock-induced seizures               1
2  Fc1ccccc1-n1c(-c2ccc(Cl)cc2)n[nH]c1=S [Compound 12a]  maximal electroshock-induced seizures              -1
3  S=c1[nH]nc(-c2cccc(Cl)c2)n1-c1ccc(Br)cc1  maximal electroshock-induced seizures              -1
4  S=c1[nH]nc(-c2ccc(Cl)cc2)n1-c1ccccc1Br [Compound 15a]  maximal electroshock-induced seizures              -1
5   Fc1ccc(-n2c(-c3cccc(Cl)c3)n[nH]c2=S)cc1  maximal electroshock-induced seizures               1

###

- Test system: maximal electroshock-induced seizures
- run-description: Maximal electroshock-induced seizure (MES) test in mice
- Format: in vivo, mouse
- measurement-context: protective index, chimney TD50 / MES ED50, pretreatment time 30 min
observable: PI (TD50/ED50)

> print(dat)
                                   molecule      observable  observed.value
1  S=c1[nH]nc(-c2cccc(Cl)c2)n1-c1ccc(Cl)cc1  PI (TD50/ED50)             2.7
2  Fc1ccc(-n2c(-c3ccc(Cl)cc3)n[nH]c2=S)c(F)c1 [Compound 13a]  PI (TD50/ED50)             1.9
3  S=c1[nH]nc(-c2ccc(Cl)cc2)n1-c1ccccc1Br [Compound 15a]  PI (TD50/ED50)             2.4
4  Fc1ccccc1-n1c(-c2ccc(Cl)cc2)n[nH]c1=S [Compound 12a]  PI (TD50/ED50)             2.7
5  S=c1[nH]nc(-c2ccc(Cl)cc2)n1-c1ccc(Br)cc1 [Compound 16a]  PI (TD50/ED50)             2.6
6  Cc1ccc(-n2c(-c3cccc(Cl)c3)nn(CN3CCOCC3)c2=S)cc1 [Compound 22a]  PI (TD50/ED50)             1.4
7  S=c1[nH]nc(-c2cccc(Cl)c2)n1-c1ccc(Br)cc1  PI (TD50/ED50)             1.8
8  Cc1ccc(-n2c(-c3cccc(Cl)c3)n[nH]c2=S)cc1 [Compound 10a]  PI (TD50/ED50)             4.5
9   Fc1ccc(-n2c(-c3cccc(Cl)c3)n[nH]c2=S)cc1  PI (TD50/ED50)             1.6

###

- Test system: maximal electroshock-induced seizures
- run-description: Maximal electroshock-induced seizure (MES) test in mice
- Type: in vivo, mouse
- measurement-context: protective index, chimney TD50 / MES ED50, pretreatment time 120 min
Item-by-item account of PI (TD50/ED50)
observable: PI (TD50/ED50)

> print(dat)
                                   molecule                            system.name  observed.value
1  S=c1[nH]nc(-c2ccc(Cl)cc2)n1-c1ccccc1Br [Compound 15a]  maximal electroshock-induced seizures             1.4
2  Cc1ccc(-n2c(-c3cccc(Cl)c3)nn(CN3CCOCC3)c2=S)cc1 [Compound 22a]  maximal electroshock-induced seizures             1.0
3  Cc1ccc(-n2c(-c3cccc(Cl)c3)n[nH]c2=S)cc1 [Compound 10a]  maximal electroshock-induced seizures             1.4
4  Fc1ccc(-n2c(-c3ccc(Cl)cc3)n[nH]c2=S)c(F)c1 [Compound 13a]  maximal electroshock-induced seizures             2.7
5  S=c1[nH]nc(-c2cccc(Cl)c2)n1-c1ccc(Cl)cc1  maximal electroshock-induced seizures             2.0
6  S=c1[nH]nc(-c2cccc(Cl)c2)n1-c1ccc(Br)cc1  maximal electroshock-induced seizures             1.3
7  Fc1ccccc1-n1c(-c2ccc(Cl)cc2)n[nH]c1=S [Compound 12a]  maximal electroshock-induced seizures             2.3
8  S=c1[nH]nc(-c2ccc(Cl)cc2)n1-c1ccc(Br)cc1 [Compound 16a]  maximal electroshock-induced seizures             2.9
